# target of assay: T1, SsoSSB WT (Saccharolobus solfataricus DSM 1617 …, UniProt Q97W73 1-148)
# T1 sequence: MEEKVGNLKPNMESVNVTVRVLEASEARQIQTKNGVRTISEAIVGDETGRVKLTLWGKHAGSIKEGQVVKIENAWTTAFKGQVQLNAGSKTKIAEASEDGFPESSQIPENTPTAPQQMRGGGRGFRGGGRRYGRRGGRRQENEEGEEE
# test name: native MS
Hi there, I'd appreciate the recorded pKd for every entry that follows.
Answers are plain numbers, as −log10 of the molar value.

>>> df
                          binder  readout_value
0  TTTTTTTTTTTTTTT (ssDNA) [T15]           5.88

# ---- query binder ----
Problem: Tell us which pKd value is on record for TTTTTTTTTTTTTTTTTTTTTTTTTTTTTT (ssDNA) [T30]
Solution: 6.58
